- Test name: Single ascending dose IV study in healthy adult subjects (safety, PK)
- Assay type: in vivo, human
- Test settings: human, plasma; 400 mg 1-hour IV infusion; read-out: AUC0-168
*1 amine or outer side, *2 acyl side, *3 side chain or, on linkers, in order; H or OH if unused. Where a SMILES comes first, the peptide text is derived from it. Bridges are numbered along the chain shown (N, C = ends). [ ]: non-standard residue; d: D form. The star is where a group is joined. Orn(4R-OH,5R-OCH2CH2NMe3+) = C[N+](C)(C)CCO[C@@H](N[*:3])[C@H](O)C[C@H](N[*:1])C(=O)[*:2]; pTerphenylCO(4''-OnC5H11) = CCCCCOc1ccc(-c2ccc(-c3ccc(C(=O)*)cc3)cc2)cc1; hTyr(3S-OH,4S-OH) = N[C@H](C(=O)O)[C@H](O)[C@@H](O)c1ccc(O)cc1; Pro(3S-OH,4S-Me) = C[C@H]1CN[C@H](C(=O)O)[C@H]1O; Hyp = O=C(O)[C@@H]1C[C@@H](O)CN1
Readout label: AUC(0-t)

INSERT INTO results (molecule, value_measured) VALUES
  ('CCCCCOc1ccc(-c2ccc(-c3ccc(C(=O)N[C@H]4C[C@@H](O)[C@@H](OCC[N+](C)(C)C)NC(=O)[C@@H]5[C@@H](O)[C@@H](C)CN5C(=O)[C@H]([C@@H](C)O)NC(=O)[C@H]([C@H](O)[C@@H](O)c5ccc(O)cc5)NC(=O)[C@@H]5C[C@@H](O)CN5C(=O)[C@H]([C@@H](C)O)NC4=O)cc3)cc2)cc1 [CD101] ({pTerphenylCO(4''''-OnC5H11)}-[Orn(4R-OH,5R-OCH2CH2NMe3+)]T[Hyp][hTyr(3S-OH,4S-OH)]T[Pro(3S-OH,4S-Me)]; lactam 1-C)', '1160 µg·h/mL');
